Listing: protease stability score of selected sequences
assayProcedure: protease stability score; higher = more stable; yeast display proteolysis, trypsin and chymotrypsin;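 further: log10 excess protease needed over predicted unfolded state with 0 meaning unfolded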
Lab note: write the figure by itself, no unit.

// known answers, use as guide
• DEKTAASQFFRDLRHALRQGDETRIMELADENVEFQIGDKRWHGRESAMELARHVHNRADTVELRIEDLKIDNGQMNADVLITFNHNGRNETQRVNVRARIHNGHVVLVEVHQK = 1.62
• EDEEAEEAIRIWQRNDPDQLNRMVDKDVSIHYGDKSYHGRHEVKKIWENYVKQVDRISFRHITRTGEHVSFEVEAVVNGKHVEFTASMEMKNGRAKDITFKATNEEDDKELQKNLE = 0.28

Alright, here's another sequence for you.
May I ask what protease stability score has been recorded for DEKKALEVIDRALKYVKNGNKEQVQQMGAPDVEVQNGDARNKGVEEMKKFAERVKKAGNQFEYKEKTTKGNKVKTVVQVTVNGQTIEYEVEVVAEGGKVKHWVVKMDETFKKVVDKS ?
0.008

* * *

assayProcedure: protease stability score; higher = more stable; yeast display proteolysis, trypsin and chymotrypsin;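 further: log10 excess protease needed over predicted unfolded state with 0 meaning unfolded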
Listing: protease stability score of selected sequences
Lab note: write the figure by itself, no unit.

• DDEHIKEFLQVVRRGDPDKILKMIDPNAHLQVGDKDLHGRDAVKKAQDKLETTVDHFEVEEVHFQGDNVVVTYLLNVNGKSITVQLVANIEDGRIKSMRIEARSEEDHKILNEQQG = 0.693
• DERVHEAFRRFVHALKEGDPDKIRENADEDVRIEVGDTEIQGRETLADRVEEEMKDMQIEYQIDSIKVHGNKAKVNMRVVKNHNGKPETRKFTVHVTFDNGKVKNVHVQDDR = 1.3
• DETVLQVVHRFLKAVETGDPKEVRKNADPNAKAVVGDQTVSGRETLAHQIEREREEMSFEWEKVTNDVQGEHVDVDFTMRMTHNGRPDRSRVRIKYQVHNGKLTYVRVTDDK = -0.149

May I ask what protease stability score has been recorded for DEDDMRKWEELMRAFETGDEKKATELVDPNATFKVGDKTYHGREHFIKDLFTKVKEIHIQMRIRDIQQSGDFAVVHLVKSNHNNGKPNSDVAVVLVRMDNGKLKYVQETKDQ ?
0.587

May I ask what protease stability score has been recorded for DEDRRAREWVETMQDIVENNNERDMKKLFDPNARVSVGDREYHGEDEIAHVLQREMENADNIHIEVKSIIVHGDKVTVDLTVSVQVNGKTETDRVRMVLKDKDGRIQVVSVQQT ?
0.597

May I ask what protease stability score has been recorded for DEEDQAKELAERYLEAMENGDEEKNARLADKDVSLTVGDKHVHGREELKKWFRTFVHRVDHVEIQVHDVKVSNGNATIDAEIKYTFNGRDVKKQVLMHAHVKNGELTLKRMTFE ?
1.02

* * *

Listing: protease stability score of selected sequences
assayProcedure: protease stability score; higher = more stable; yeast display proteolysis, trypsin and chymotrypsin;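 further: log10 excess protease needed over predicted unfolded state with 0 meaning unfolded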
Lab note: write the figure by itself, no unit.

• DEEDQLKEIVERVHDVYKHGDEDKVRKMVDPNARARIGDKRIHGHDNFAKMIAEWKRKADSVSVHVEEFRVSGNKMTMTIRIKMDHNGRDTTFRYTAVATNTNGRVRVVRIQEK = 0.049
• DEREEAKRLWERFVRAIQHGDERRLRELLPPDVRVTVGDKEYHGRDQAVTWLQELAERVDHVSFDVRHIEVENGRLDIDAKVQMENNGRQHSFTLRIIADDHNGKFVIRSITYQ = 1.84
• DEHAEHIATEWWKAIRTNNPERARELVDKDVKINVGDKRIHGREQVDREIKRLNNTSRQDYKSMHMTVKGDKVRVEMNKRQEDNGNPRSKNFEVVFDFHNGRIRHISVHETK = -0.381
• DERALDVARQLVEALNTGDPETANNLLDKNVHIRVGDKRIHGRKQHSRTVDREKKEIRRHLEKVTNKSKGDKADVDIQFQQTHNGRPTSNQMKMIVEARNGKVKRMSVREHG = -0.469
• DDEETAKRHQREWQKNLEFNDEKSIQELVDPNARWQIGDKEVHGREEWARQLRRLREDVDHVQIHVKHVEVSNGQYNLNILIKYNINGETHKIRLVYVAQKNNGRVLVRSVEHK = 0.655
• EEKLEEQVEELLKNLDTGDENRARQLADPNVRARVGDKEYHGMEQFIKDQMDQRRNARIEVKDLRSEHHGDKITVDLSYKAQHNGRPTTVQREVTFHAHNGKFRQMKIEQSG = -0.521
• DERKAVKHLNTMMRLINTGNPSEAADQADKDVKVHIGDKDVHGRERASDLIKKLRDRVDTIKVKSIEERPNHLSAKIDLEHNGRTHTVVFIIHAENGKVTSMSVKTD = -0.349
• DDEANKTAHELVRILQTGDDESFEKMVDPNVKVVIGDRTFKGSSEVRDYLRKRKENIHEDLQVKHVSASGNKAHLDLRFRNDKNGRPQERRLELDVVFHNGKVKNVVYHWDG = 1.39

May I ask what protease stability score has been recorded for DEDEQRKIDETMHRLMEENNFDQLARTADENVRIVIGDKTYRGREQAVSAFRKLREHVDHADVKSVEIRNGRVLIKARLSFNGRTADVVFTFQFTNGRIQWAEVDPHAVRNARE ?
1.06

May I ask what protease stability score has been recorded for DEKKVKELLVRAVQAYVNGNTEEVKKLLKEDVQLHAVNHTYHGVEQLLKVVKRMKEYGIKLQVTDHKVDGDKVDVKVQFHAAGETKEVTFRVQADGGKVDKVEVHVTEEVQKLAEKG ?
1.05

May I ask what protease stability score has been recorded for DSDEVRKFNEKVKTGNPKHLQDMFDENAKVQIGNKDFRGREHVQTVIDKIERDVDHKEIKRMEVKGDHFEIDAIYNINGHNIRMIIKIQVRNGKIQNMTVEFTNEEQQEIFEENVQ ?
0.423
